Catalogue of viability at 28.5 h, 10 µM values
assay-remarks: in vitro
measurement-conditions: human, hela cells, % viability
Numbers only here, please. The scale is %.

{"columns": ["molecule", "viability at 28.5 h, 10 µM (%)"],
 "data": [
  ["COc1cc(Nc2cc(-c3cccc(N)c3)nc3ccnn23)cc(OC)c1OC", 105],
  ["CCCCN(C)c1nccnc1-c1cccnc1", 99.2],
  ["CCOC(=O)c1cccnc1-c1cccc(C(N)=O)c1", 96],
  ["Cc1cc(CC(=O)N2CCC(Cn3cncn3)(C3CCCCC3)CC2)on1", 88.8]
]}

Param item = "Cc1ccc(NS(=O)(=O)c2cc(C(=O)N3CCN(C)CC3)ccc2C)cc1C" ; retrieve measured viability at 28.5 h, 10 µM.
91.2

Lookup "Cc1ccc(CNc2cc(C)ccn2)cc1"
106

Lookup "CC(=O)Nc1ccc2c(CSc3nnc(-c4ccco4)n3C)cc(=O)oc2c1"
91.7

----------
assay-remarks: in vitro
measurement-conditions: human, hela cells, % viability
observed-property: viability at 28.5 h, 10 µM (%)
Numbers only here, please. The scale is %.

Previously resolved entries follow.
{"columns": ["compound", "viability at 28.5 h, 10 µM (%)"],
 "data": [
  ["CC(=O)N1CCc2cc(NC(=O)C3CC4C=CC3C43CC3)ccc21 (centres unmarked)", 79.8],
  ["O=C(Cc1ccccc1)Nc1ccc(C(=O)O)cc1NC(=O)Cc1ccccc1", 108],
  ["COc1ccc2[nH]c3c(c2c1)CCNC31CCN(Cc2ccc(S(C)(=O)=O)cc2)CC1", 88.8]
]}

Param item = Cc1nc(C)c(-c2csc(Nc3ccc(S(N)(=O)=O)cc3)n2)s1 [CBK263292B] ; retrieve measured viability at 28.5 h, 10 µM.
95.8

Lookup "Nc1nonc1-n1nncc1CN1CCCCC1"
86.9

Lookup "CCc1nn2c(=O)cc(CNc3ccccc3CN(C)C(C)=O)nc2s1"
114

Lookup "Cc1ccc(OCC(=O)O/N=C(\N)c2ccccn2)cc1C"
101

Lookup "CS(=O)(=O)c1ccc(-n2nnnc2CN2CCC3(CCCC3)C2)cc1"
89.4

Lookup "CCN1CCCc2cc(-c3cncn3CCCn3ccnc3C)ccc21"
109

Lookup "CCCc1nn(CC(=O)N(CC)CC)c(=O)c2cc3ccsc3n12"
81.3

----------
assay-remarks: in vitro
measurement-conditions: human, hela cells, % viability
observed-property: viability at 28.5 h, 10 µM (%)
Numbers only here, please. The scale is %.

{"columns": ["molecule", "observed-property", "measured-number"],
 "data": [
  ["COc1ccccc1-c1nnc(SCc2ccc(C(=O)O)cc2)[nH]1", "viability at 28.5 h, 10 µM", 99.5],
  ["O=C(CN1C(=O)N2CCN=C2c2ccc(Cl)cc21)NCC1CC1", "viability at 28.5 h, 10 µM", 94.2],
  ["OCCN1CCN(c2nc3ccccc3nc2-c2ccccc2)CC1 [CBK268799C]", "viability at 28.5 h, 10 µM", 111],
  ["CCCC(=O)Nc1ccc(-c2csc(CCN3CCOC3=O)n2)cc1", "viability at 28.5 h, 10 µM", 97],
  ["CC(NC(=S)Nc1ccc(S(N)(=O)=O)cc1)c1ccncc1 (stereo not shown)", "viability at 28.5 h, 10 µM", 111],
  ["O=C(Nc1cccc2[nH]ccc12)c1cccc(F)c1Cl", "viability at 28.5 h, 10 µM", 76.4],
  ["CN(C)CCCOc1nccnc1N1CCCC1", "viability at 28.5 h, 10 µM", 89.6],
  ["Oc1ccc(-n2ncc(-c3ccc(Cl)cc3)n2)cc1", "viability at 28.5 h, 10 µM", 86.8]
]}

Param item = CC1CN(C(=O)c2ccccc2)CC(C)N1CCCCc1ccc(F)cc1 (stereo not shown) [CBK025019C] ; retrieve measured viability at 28.5 h, 10 µM.
97.9

Lookup "Cc1ccc2[nH]c(=O)c(CN(Cc3ccccc3)C(=O)NC3CCCCC3)cc2c1"
84.5

Sourced from paper PMC12040169
